System: ACHN renal
Test: NCI-60 one-dose screen, 48 h (100 = growth as untreated, 0 = no growth, -100 = all killed)
Conditions: 10 µM unless noted
This is part of a sample that, as a whole, favours compounds with a hit. Of some 83,000 tested, about 20% had one in any assay.
PARAMETER: growth (%)
Numbers only here, please. The scale is %.

What value of growth has been recorded for this entry: CCCCCc1ccc(S(=O)(=O)Nc2cccc(-c3csc(NC(=O)CN4CCN(C)CC4)n3)c2)cc1
91.8

What value of growth has been recorded for this entry: CC(=O)c1ccc(Nc2nc(SCC(C)C)nc(-c3ccccc3)c2C#N)cc1
47.8

What value of growth has been recorded for this entry: C#C[C@]1(O)CC[C@H]2[C@@H]3CC=C4c5sc(-c6cccc(O)c6)nc5CC[C@]4(C)[C@H]3CC[C@@]21C
-58.7

What value of growth has been recorded for this entry: O=C(NNc1nc2cc(F)c(F)cc2n2cccc12)c1cnccn1
17.6

What value of growth has been recorded for this entry: CCCCc1nc(/C=N/Nc2nc(Nc3ccccc3)nc(Nc3ccc(S(N)(=O)=O)cc3)n2)c(Cl)[nH]1
100

What value of growth has been recorded for this entry: COc1cc(-c2nn(C(C)(C)C)cc2-c2ccnc(NCCCNS(=O)(=O)c3ccc(Cl)cc3)n2)ccc1Cl
64.1

What value of growth has been recorded for this entry: Oc1[nH]c2ccccc2c1Nn1c(N=N/C=c2/ccc3c(c2)C=NN=3)n[nH]c1=S
96.8

----------
System: SK-MEL-2 melanoma
Experiment: NCI-60 one-dose screen, 48 h
Conditions: 10 µM unless noted
Compounds without any hit were thinned out: in the full panel of roughly 83,000, 20% have a hit. Calls of active or inactive are those of the source. Rule for the calls: active = growth percent below 10; inactive = the rest.
Give one outcome, nothing more. List: active, inactive

Which outcome was entered for the compound CC1(C)NCCC[C@]2(C)[C@H]3C/C(=N\O)C4[C@@H]5C[C@@](C)(CO)CC[C@]5(C)CC[C@@]4(C)[C@]3(C)CC[C@@H]12 (some centres not stated) in this test?
inactive

Which outcome was entered for the compound C#CCNC1CCC(c2csc(C#C)n2)=C1C (configuration not stated) in this test?
inactive

Which outcome was entered for the compound CCc1cccc(NC(=O)CNc2cc(S(=O)(=O)N(C)C)cc(C)c2C)c1 in this test?
inactive

Which outcome was entered for the compound Nc1cc(F)ccc1NC(=O)c1ccc(NC(=O)C/C=C/c2cccnc2)cc1 in this test?
inactive

Which outcome was entered for the compound CS(=O)(=O)Nc1cc(-c2ccc3ncc(C#N)c(N[C@H](CO)c4ccccc4)c3c2)cnc1Cl in this test?
inactive

Which outcome was entered for the compound O=C(NNc1nc2cc(F)c(F)cc2n2c(CN3CC4CNCC4C3)ccc12)c1cnccn1 (configuration not stated) in this test?
inactive

Which outcome was entered for the compound C=C(C)[C@@H]1CC[C@]2(COC)CC[C@]3(C)[C@H](CC[C@@H]4[C@@]5(C)CCCNC(C)(C)[C@@H]5CC[C@]43C)[C@@H]12 in this test?
inactive

Which outcome was entered for the compound CS(=O)(=O)c1ccc(-n2cc(/C=N/O)c(-c3ccccc3)n2)cc1 in this test?
inactive

Which outcome was entered for the compound COc1ccc(NC(=O)Nc2ccc3c(ccn3C(=O)c3cccc(F)c3)c2)cc1 in this test?
inactive

Which outcome was entered for the compound CCOC(=O)c1c(NC(=O)c2ccccc2C(F)(F)F)sc2c1CCC(=O)C2 in this test?
inactive

Which outcome was entered for the compound CCC1=Cc2cc(OC)ccc2OC12C=Cc1cc(OC)ccc1O2 (configuration not stated) in this test?
inactive

Which outcome was entered for the compound CC(=O)c1cc(C(=O)N2c3ccccc3Sc3ccccc32)n2ccc3ccccc3c12 in this test?
active

----------
Test system: MDA-MB-435 melanoma
Test: NCI-60 one-dose screen, 48 h
Settings: 10 µM unless noted
This is part of a sample that, as a whole, favours compounds with a hit. Of some 83,000 tested, about 20% had one in any assay. Activity calls are given as the source filed them. Rule for the calls: active = growth percent below 10; inactive = the rest.
Give one outcome, nothing more. List: 1 = active, -1 = inactive

Which outcome was entered for the molecule Cc1ccc2c(c1)C(=O)/C(=C/c1cccc(F)c1)S2 in this test?
-1

Which outcome was entered for the molecule C#CCNC1CCC(c2csc(C#C)n2)=C1C (stereo not given) in this test?
-1

Which outcome was entered for the molecule NC(N)=Nc1ccc(Oc2cccc(NC(N)=Nc3ccc(Cl)c(C(F)(F)F)c3)c2)cn1 in this test?
-1

Which outcome was entered for the molecule Nc1nc(-c2cccc([N+](=O)[O-])c2)c(N=Nc2cccc([N+](=O)[O-])c2)s1 in this test?
-1

Which outcome was entered for the molecule O=C(NNc1nc2cc(F)ccc2n2c(CO)ccc12)c1cnccn1 in this test?
-1

Which outcome was entered for the molecule CC(C)c1ccc(NCc2cn(-c3ccc(C(=O)O)cc3)nc2-c2cc(C(F)(F)F)cc(C(F)(F)F)c2)cc1 in this test?
-1

Which outcome was entered for the molecule Cc1cc(C)c(N2C(=O)CC(Nc3ccc(Cl)cc3Cl)C2=O)c(C)c1 (stereo not given) in this test?
-1

Which outcome was entered for the molecule CCN1CCN(C(=O)[C@]23CCC(C)(C)C[C@H]2C2=CC[C@@H]4[C@@]5(C)Cc6c([nH]c7ccccc67)C(C)(C)[C@@H]5CC[C@@]4(C)[C@]2(C)CC3)CC1 in this test?
-1

Which outcome was entered for the molecule Cc1c(Cl)cccc1S(=O)(=O)Nc1ccc2c(c1)C(=O)N(C1CCC(=O)NC1=O)C2=O (stereo not given) in this test?
-1

Which outcome was entered for the molecule CCCCCc1ccc(S(=O)(=O)Nc2cccc(-c3csc(NC(=O)CCCCCN4CCN(C)CC4)n3)c2)cc1 in this test?
1

Which outcome was entered for the molecule NS(=O)(=O)c1ccc(Nc2nc(N/N=C/c3ccccn3)nc(Nc3ccccc3)n2)cc1 in this test?
1

Which outcome was entered for the molecule O=C1/C(=C/C=C/c2ccco2)SC(=S)N1C1CCCCC1 in this test?
-1

Which outcome was entered for the molecule CCn1c(SCC(=O)Nc2cccc(C(=O)/C=C/c3cc(OC)c(OC)c(OC)c3)c2)nc2ccccc2c1=O in this test?
-1

Which outcome was entered for the molecule COc1cc(OC)c(S(N)(=O)=O)cc1C(C)=O in this test?
-1

Which outcome was entered for the molecule COc1cc(-c2nc(-c3ccccc3)[nH]c2-c2ccnc(NCCCNS(=O)(=O)c3cccc(F)c3)n2)ccc1Cl in this test?
-1

Which outcome was entered for the molecule CCOC(=O)c1c(Nc2ccccc2)nn2c(-c3ccc(OC)cc3)ccnc12 in this test?
-1

Which outcome was entered for the molecule CCOc1ccc(C(=O)Nc2ncc(Cc3ccc(F)cc3)s2)cc1 in this test?
1

Which outcome was entered for the molecule Clc1cccc(/C=N/Nc2nc(N/N=C/c3cccc(Cl)c3Cl)nc(N3CCCCC3)n2)c1Cl in this test?
-1

Which outcome was entered for the molecule COc1ccc(/C=C/C(=O)c2cc(S(N)(=O)=O)c(OC)cc2OC)cc1 in this test?
-1

Which outcome was entered for the molecule c1ccc(C(c2nc3ncncc3[nH]2)N2CSc3nc4ccccc4n3C2)cc1 (stereo not given) in this test?
-1

Which outcome was entered for the molecule O=c1[nH]c2ccccc2cc1CSc1ccccc1Nc1nccc(-c2ccc(Cl)cc2)n1 in this test?
-1

Which outcome was entered for the molecule Cc1ccc2sc3c(c2c1)OC(N)=C(C#N)C3c1cccc(F)c1 (stereo not given) in this test?
1

Which outcome was entered for the molecule N#Cc1cccc(CN2CCC3=C(C2)C(=O)N(Cc2ccc(Cl)cc2)C2=NCCN23)c1 in this test?
-1

Which outcome was entered for the molecule CNC(=O)c1c(NC(=O)c2ccccc2C(F)(F)F)sc2c1CCC(=O)C2 in this test?
-1

Which outcome was entered for the molecule O=C(CNc1nc(-c2cccc([N+](=O)[O-])c2)cs1)Nc1cccc([N+](=O)[O-])c1 in this test?
1

----------
Tested on: HT29 colon
Assay: NCI-60 one-dose screen, 48 h
Conditions: 10 µM unless noted
This is part of a sample that, as a whole, favours compounds with a hit. Of some 83,000 tested, about 20% had one in any assay. The source made the active and inactive calls. How the source made its calls: active means growth percent below 10; inactive means the rest.
Give one outcome, nothing more. List: YES (active), NO (inactive)

Which outcome was entered for the compound Nc1nc(N)c2c(n1)NC(c1ccc(Cl)cc1)CC(c1ccc(Nc3nc(NCCO)nc(N4CCOCC4)n3)cc1)=N2 (stereo unspecified) in this test?
NO

Which outcome was entered for the compound Cc1ccc(C2=NN(C)C(=O)C3(CCCC3)C2)cc1 in this test?
NO

Which outcome was entered for the compound COC(=O)c1[nH]nc2c1C1(C(=O)N(C)c3ccccc31)C(C#N)=C(N)O2 (stereo unspecified) in this test?
NO

Which outcome was entered for the compound Fc1ccc(-c2cc3nc(C(Cl)Cl)nc(-c4ccc(F)cc4)n3n2)cc1 in this test?
YES

Which outcome was entered for the compound N#Cc1cccc(CN2CCC3=C(C2)C(=O)N(Cc2ccc(Cl)cc2)C2=NCCCN23)c1 in this test?
NO

Which outcome was entered for the compound Cc1ccc(S(=O)(=O)N(CC[C@@H]2C[C@H]2c2cc3ccccc3o2)S(=O)(=O)c2ccc(C)cc2)cc1 in this test?
NO

Which outcome was entered for the compound Cc1ccc(CSc2nc(-c3ccc(Cl)cc3)c(C#N)c(N3CCNCC3)n2)cc1 in this test?
NO

Which outcome was entered for the compound O=S(=O)(NCCCNc1nccc(-c2[nH]c(-c3ccccc3)nc2-c2ccc(Cl)c(O)c2)n1)c1cccc(F)c1 in this test?
NO

Which outcome was entered for the compound Cn1ccnc1C(=O)/C=C/c1ccc(CNC(=O)c2ccc(S(F)(F)(F)(F)F)cc2)cc1 in this test?
NO

Which outcome was entered for the compound CC(=O)N1N=C(c2cccc(-n3cccc3)c2)CC1c1cccc(F)c1 (stereo unspecified) in this test?
NO

Which outcome was entered for the compound O=C(c1ccc(O)cc1)[C@@H]1CN[C@@]2(C(=O)Nc3ccccc32)[C@H]1c1ccc(F)cc1 in this test?
NO
